Cited source for all entries: the supplement of paper PMC8728848

# Target entity: Fuc(a1-3)[Gal3S(b1-4)]GlcNAc6S
# Assay: glycan array binding signal (z-score within array); higher = stronger binding
# Assay conditions: glycan notation: IUPAC condensed, linker removed
About 410 targets per protein were measured; listed, in parts, are those with the strongest signals and a random draw of the rest.
The label depends only on glycan array binding signal (z-score): true (1) if it is at least 0.05, false (0) if it is smaller.

input: Kindly determine if glycan array binding signal (z-score) recorded for SJA (Sophora japonica) (protein) FLGLFNSGGYSSSYQIVAVEFDTYINEWDPKTRHIGIDINSINSTKTVTWGWENGEVAIVLISYKAATETLTVSLTYPSSQTSYILSAAVDLKSILPEWVRIGF is above or exactly 0.05.
output: false (0)

input: Identify whether the reported glycan array binding signal (z-score) of the following binder is 0.05 or greater: B936 (Bifidobacterium sp) (protein) MKNWKKAIALVASAAALVSVAACGPSNAGGSSDSGKKTVGFVAVGPEGGFRTANEKDIQKAFEDAGFDLTYSPTQNNDQQKQIQAFNKFVNDEVDAIILSSTEDSGWDDSLKKAAEAEIPVFTVDRNVDVKDAEAKKAIVAHIGPSNVWCGEQAAEFVNKNFPDGANGFILEGPAGLSVVKDRGTGWGNKVASNVKVLESQSANWSTDEAKTVTAGLLDKYKSDNPQFIFAQNDEMGLGAAQAVDAAGLKGKVKIITIDGTKNALQALVDGDLSYVIEYNPIFGKETAQAVKDYLDGKTVEKDIEIESKTFDAASAKEALDNNTRAY
output: true (1)

input: Entry EULS2 M2 (Oryza sativa) (protein) MVYCRANPNYAMTARNGAVVLAPANPKDEYQHWIKDMRWSTSIKDEEGYPAFALVNKATGQAIKHSLGQSHPVRLVPYNPEVMDESVLWTESRDVGNGFRCIRMVNNIYLNFDAFHGDKYHGGVRDGTDIVLWKLCEGDSQRWKIQPYYILEQKLISEEDLNSAVDHHHHHH : is its glycan array binding signal (z-score) no less than 0.05?
output: false (0)

input: Item OS9 (Arabidopsis thaliana) (protein) MRGSHHHHHHGMASMTGGQQMGRDLYDDDDKSRLQIFPAHLVGTFSRNNREPKYKIEFLPEDSPFHPGDNLESMVMLDKHGNRFLCYLPKEEKATSGWTSSQQNISTVMMETQQLVKLKTPDELLQPLSEKCLFRQEGWWSYEFCHQKYVRQLHVEDENKIVQEFFLGTFDPEATAAFNQTVSDASTDASQRYHSHVYTNGTTCDLTGSPREVEVRFVCAETRAMVTSITELSTCKYALTVQCPTLCKHPLFQLEKPVSHTIHCNAIPVEEDATRNKEEQAVDESPKMIADS with glycan array binding signal (z-score) of 0.05 or above?
output: false (0)

input: Is the recorded value of glycan array binding signal (z-score) equal to or greater than 0.05 for this binder? RobpsCRA (Robinia pseudoacacia) (protein) IKGGYWYSGSGLAVSDINPSHFTHLFCAFADLDPNTNKLTISSSNAAAFSTFTQTVRAKNPSVKTLLSIGGGGGRALAAVFANMASQASRRKSFIDSSIQLARRNNFHGLDLDWEYPSSDIDKTNFASLIREWRAAVATESSTSGTPALLLSAAVGGSDQITPLKYYPGEAIANNLDWVNVMTYDLYTSDSYPTLTQPPAPLFYPRGIFSADEGITKWIQSGVPESKLALGLPFYGFKWRLSDPNNHGLFAPATQGLGAVKYKDIVNTGGQVEFDSTYVTNYCFKGTDWYGYDDTQSISAKVAYAKQRGLFGYFAWHIEQDSNWALS
output: true (1)

input: Confirm if glycan array binding signal (z-score) reported for the binder LEA (Lycopersicon esculentum) (protein) NEVFDVPMNETIGVESINASVGGYPRCGAQGDGGNCPSGMCCSVWGWCGKTYGYCAPQNCQKQCPAPYPEGRCGWQADGKSCPNGKCCSYGGWCGTTSDYCARQNCQKQCILPSPPPPPPPPPGFPRPECGLQKNGERCTKPGECCSIWGLCGATYKYCDPQHCQKQCSAPFPPGRCGWQADGRPCPTGQCCSFSGWCGTTSAHCTYPQCVSQCNDPRFPSSLNNRIQSFML is 0.05 or above.
output: true (1)

input: Quick check: does DCL-1 (Homo sapiens), Q8IX05 (protein) MLRAALPALLLPLLGLAAAAVADCPSSTWIQFQDSCYIFLQEAIKVESIEDVRNQCTDHGADMISIHNEEENAFILDTLKKQWKGPDDILLGMFYDTDDASFKWFDNSNMTFDKWTDQDDDEDLVDTCAFLHIKTGEWKKGNCEVSSVEGTLCKTAIPYKRKYLSDNHILISALVIASTVILTVLGAIIWFLYKKHSDSRFTTVFSTAPQSPYNEDCVLVVGEENEYPVQFD have glycan array binding signal (z-score) greater than or equal to 0.05?
output: false (0)

input: Quick check: does PILRa (Homo sapiens), Q9UKJ1 (protein) MGRPLLLPLLPLLLPPAFLQPSGSTGSGPSYLYGVTQPKHLSASMGGSVEIPFSFYYPWELATAPDVRISWRRGHFHRQSFYSTRPPSIHKDYVNRLFLNWTEGQKSGFLRISNLQKQDQSVYFCRVELDTRSSGRQQWQSIEGTKLSITQAVTTTTQRPSSMTTTWRLSSTTTTTGLRVTQGKRRSDSWHISLETAVGVAVAVTVLGIMILGLICLLRWRRRKGQQRTKATTPAREPFQNTEEPYENIRNEGQNTDPKLNPKDDGIVYASLALSSSTSPRAPPSHRPLKSPQNETLYSVLKA have glycan array binding signal (z-score) greater than or equal to 0.05?
output: false (0)

input: Dear colleague, could you confirm whether LlpA1 (Pseudomonas fluorescens), Q4KHC3 (protein) MGSSHHHHHHSSGLVPRGSHMAWIRYDFTDNGSSVLPARYYMAPNQYLQSPNKRFKLLFQADGNLALYDGAQLAWVADQNTPFTNVSKGNKKDPMMVFMNYGFVLDDPLRGRIWSTTPSDPTMGSREDASLRAFTQVQDDGNIVTVDTIPHWYAPNGRVFTPAVGAAMIIGGTTELVPGQFYSAGEHSLVFQGDGNLVVYGPNSSVIWATYTQNKGGVRCVMQEDGNLVIYAANNGVVWQSGTGGHPGATIRLQANGSFTIVTERPVWARFGYTPTIKPPRVFYPDHKWKTGSYTWNNVF has glycan array binding signal (z-score) at or above 0.05?
output: false (0)
